Biological target: LuxS (Escherichia coli O157:H7)
Assay: Surface plasmon resonance (BIAcore T200) binding
Conditions: LuxS immobilized on CM5 chip, PBS-P+ pH 7.4, 5% DMSO, 1:1 binding model; read-out: equilibrium dissociation constant (KD)
readout type: pKd
One number for each entry, as −log10 of the molar value.

Ask: Query the reported pKd for LuxS (Escherichia coli O157:H7); item: O=C1C=C(Br)/C(=C/Br)O1 [furanone C30, reference compound]
Reply: 6.46

---

Biological target: LuxS of E. coli (Escherichia coli O157:H7, UniProt Q8X902)
Construct: endogenous in cells; host or cells: E. coli O157:H7 (ATCC 43895)
Assay: AI-2 bioluminescence assay (V. harveyi BB170 reporter) of AI-2 production
Assay type: cell-based
Conditions: AI-2 bioluminescence assay; E. coli O157:H7 cultured 16 h with inhibitor, supernatant read with V. harveyi BB170
readout type: IC50 (µM)
Numbers only, in µM.

molecule	experimental target	unit symbol	IC50
CSc1ccc(CNC(=O)C2=Cc3cc(-c4ccccc4)ccc3OC2)cc1 [L449-1159]	LuxS of E. coli (Escherichia coli O157:H7, UniProt Q8X902)	µM	8.64
CSc1ccc(CNC(=O)c2cccc(-c3cnc(N4CCCC4)nc3)c2)cc1 [L368-0079]	LuxS of E. coli (Escherichia coli O157:H7, UniProt Q8X902)	µM	7.01

Consider the additional molecule presented here.
Ask: What value of IC50 has been reported for the following molecule? CCCn1cnc2cc(CNC(=O)c3cc4cc(Cl)ccc4[nH]3)ccc21 [M414-3326]
Reply: 9.62

---

Target: LuxS (Escherichia coli O157:H7)
Sequence (Q8X902 2-171): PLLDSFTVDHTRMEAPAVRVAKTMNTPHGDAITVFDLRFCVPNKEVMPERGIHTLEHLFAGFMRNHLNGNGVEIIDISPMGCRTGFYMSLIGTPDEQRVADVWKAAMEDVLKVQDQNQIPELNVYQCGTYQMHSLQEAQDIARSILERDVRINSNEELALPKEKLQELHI
Assay: Surface plasmon resonance (BIAcore T200) binding
Conditions: read-out: equilibrium dissociation constant (KD); LuxS immobilized on CM5 chip, PBS-P+ pH 7.4, 5% DMSO, 1:1 binding model
readout type: pKd
Answers are plain numbers, as −log10 of the molar value.

Ask: What value of pKd has been reported for the following compound? CCCn1cnc2cc(CNC(=O)c3cc4cc(Cl)ccc4[nH]3)ccc21
Reply: 5.72

---

Molecular target: LuxS of E. coli (Escherichia coli O157:H7)
Construct: endogenous in cells; host or cells: E. coli O157:H7 (ATCC 43895)
Assay: AI-2 bioluminescence assay (V. harveyi BB170 reporter) of AI-2 production
Assay type: cell-based
Details: IC50, AI-2 bioluminescence assay; E. coli O157:H7 cultured 16 h with inhibitor, supernatant read with V. harveyi BB170
Would you kindly list IC50 for each of these molecules?
Numbers only, in µM.

Below are worked cases with known answers.
smiles repr	experimental target	unit symbol	IC50
CCc1ccc(NC(=O)CSCc2cc(=O)c3cccc(F)c3[nH]2)cc1	LuxS of E. coli (Escherichia coli O157:H7)	µM	26.4
COc1ccc(C(=O)Nc2cc(NC(=O)c3cc4ccccc4[nH]3)ccc2OC)cc1	LuxS of E. coli (Escherichia coli O157:H7)	µM	12.3
O=C(NCC1CCN(Cc2ccc(Cl)cc2)CC1)c1n[nH]c2c1COc1ccccc1-2	LuxS of E. coli (Escherichia coli O157:H7)	µM	12.2
CC(C)C(=O)N1CCc2cc(CNC(=O)c3cc4ccccc4[nH]3)ccc21	LuxS of E. coli (Escherichia coli O157:H7)	µM	24.9

For the 2 molecules below, give their IC50 values.
1. O=C(NCc1ccc2c(c1)CCN2C(=O)c1ccc(F)cc1)c1cc2ccccc2[nH]1
2. CCC(=O)N1CCc2cc(-c3ccc(C(=O)NC4CCN(Cc5ccccc5)CC4)cc3)ccc21

Reply:
[21.8, 13.3]
